This collection of values is drawn from the RNAGym collection of RNA variant scans (doi:10.7554/elife.80360).

Hi there, I'd appreciate the recorded self-cleavage for every entry that follows.
B1: Hairpin Ribozyme (parent)
chain: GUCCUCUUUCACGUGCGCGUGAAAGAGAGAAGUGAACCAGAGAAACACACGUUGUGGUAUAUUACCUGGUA

- Variants of: B1
- Test description: self-cleavage, relative activity (ratio to wild type); higher = more cleavage; co-transcriptional

Example cases with answers are listed next.
| Mutant | self-cleavage |
| --- | --- |
| A30G U70G | 0.262 |
| U2C G57C | 0.242 |
| G56C C65G | 0.0604 |
| A24U A36C | 0.517 |
| U7G C66A | 0.205 |
| A24U G34A | 1.02 |
| A45C U53G | 0.138 |
| G27U G40C | 0.0532 |

Here are 2 variants. What values of self-cleavage were reported for them?
1. A26U U58C
2. G1C U20A

Solution:
1: 0.657; 2: 0.175
